- Measured on: PI3K gamma (Homo sapiens, UniProt P48736)
- Sequence (P48736 144-1102 limits assumed): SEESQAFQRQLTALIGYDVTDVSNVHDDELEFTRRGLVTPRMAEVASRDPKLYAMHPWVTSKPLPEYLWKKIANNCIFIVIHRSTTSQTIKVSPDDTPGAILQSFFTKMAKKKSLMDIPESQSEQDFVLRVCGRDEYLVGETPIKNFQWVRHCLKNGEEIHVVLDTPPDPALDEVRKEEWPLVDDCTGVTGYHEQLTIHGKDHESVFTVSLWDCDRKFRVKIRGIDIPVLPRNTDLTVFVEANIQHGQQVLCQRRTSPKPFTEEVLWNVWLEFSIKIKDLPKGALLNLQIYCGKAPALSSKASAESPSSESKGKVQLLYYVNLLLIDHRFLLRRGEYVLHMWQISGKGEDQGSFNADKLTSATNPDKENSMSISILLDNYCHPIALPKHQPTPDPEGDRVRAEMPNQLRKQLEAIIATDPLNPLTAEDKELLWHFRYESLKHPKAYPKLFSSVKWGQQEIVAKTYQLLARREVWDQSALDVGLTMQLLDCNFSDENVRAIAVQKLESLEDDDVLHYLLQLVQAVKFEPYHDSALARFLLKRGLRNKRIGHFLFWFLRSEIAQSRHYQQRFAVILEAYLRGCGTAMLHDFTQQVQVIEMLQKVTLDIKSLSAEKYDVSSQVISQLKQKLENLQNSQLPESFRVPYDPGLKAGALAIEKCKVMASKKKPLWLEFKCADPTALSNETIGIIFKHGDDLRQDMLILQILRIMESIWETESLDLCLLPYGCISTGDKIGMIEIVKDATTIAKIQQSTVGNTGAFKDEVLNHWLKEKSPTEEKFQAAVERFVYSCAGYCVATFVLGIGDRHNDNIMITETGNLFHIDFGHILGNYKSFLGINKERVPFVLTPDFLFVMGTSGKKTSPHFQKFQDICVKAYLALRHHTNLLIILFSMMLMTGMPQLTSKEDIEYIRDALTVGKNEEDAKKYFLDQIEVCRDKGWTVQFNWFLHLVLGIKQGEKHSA
Measurement kind: IC50 (µM)
One number for each entry, in µM.

Illustrative cases are given below, each with its answer.
Compound | Measured on | Unit of measure | Experimental result
COc1cc(-c2ccc3nc(C)c(-c4cnc(N)c(C(F)(F)F)c4)n3n2)ccc1OCCNC(=O)c1cccnc1 [Example 31] | PI3K gamma (Homo sapiens, UniProt P48736) | µM | 4.32
COc1cc(-c2ccc3nc(C)c(-c4cnc(N)c(C(F)(F)F)c4)n3n2)ccc1OCCN(CC(=O)N(C)C)CC(=O)N(C)C [Example 103] | PI3K gamma (Homo sapiens, UniProt P48736) | µM | 0.662
COc1ccc(-c2ccc3nc(C)c(-c4ccnc(-n5ccnc5)n4)n3n2)cc1OC [Example 83] | PI3K gamma (Homo sapiens, UniProt P48736) | µM | 1.16
Cc1nc2ccc(-c3ccc4c(c3)OCO4)nn2c1-c1cnc(N)c(C(F)(F)F)c1 [Example 108] | PI3K gamma (Homo sapiens, UniProt P48736) | µM | 6.79
COc1cc(-c2ccc3nc(C)c(-c4cnc(N)c(C(F)(F)F)c4)n3n2)ccc1OCCN1CCNC1=O [Example 104] | PI3K gamma (Homo sapiens, UniProt P48736) | µM | 0.477

Your task in this section: give IC50 for each listed record.
1. COc1cc(-c2ccc3nc(C)c(-c4cnc(N)c(C(F)(F)F)c4)n3n2)ccc1OCCNC(=O)Nc1cccnc1 [Example 51]
2. COc1cc(-c2ccc3nc(C)c(-c4cnc(N)c(C(F)(F)F)c4)n3n2)ccc1OCCNC(=O)c1cccc(C#N)c1 [Example 27]

[2.52, 2.28]

Source listed as patent US20100305113A1.
